Readout name: Ki (µM)
Response body: numeric value in µM, unit text excluded.

Jot down Ki (Alpha-2B adrenergic receptor (Homo sapiens, UniProt P18089)) of COc1cc(CCN(C)C)c2c(c1OC)SC(CCNC(=N)N)(C1=NCCc3cc(O)c(O)cc31)S2 (stereo unspecified) .
5.9

----------
Assign IC50 to each entry below.
- Assayed target: Acetylcholinesterase (Homo sapiens, UniProt P22303)
- Sequence (P22303 whole entry): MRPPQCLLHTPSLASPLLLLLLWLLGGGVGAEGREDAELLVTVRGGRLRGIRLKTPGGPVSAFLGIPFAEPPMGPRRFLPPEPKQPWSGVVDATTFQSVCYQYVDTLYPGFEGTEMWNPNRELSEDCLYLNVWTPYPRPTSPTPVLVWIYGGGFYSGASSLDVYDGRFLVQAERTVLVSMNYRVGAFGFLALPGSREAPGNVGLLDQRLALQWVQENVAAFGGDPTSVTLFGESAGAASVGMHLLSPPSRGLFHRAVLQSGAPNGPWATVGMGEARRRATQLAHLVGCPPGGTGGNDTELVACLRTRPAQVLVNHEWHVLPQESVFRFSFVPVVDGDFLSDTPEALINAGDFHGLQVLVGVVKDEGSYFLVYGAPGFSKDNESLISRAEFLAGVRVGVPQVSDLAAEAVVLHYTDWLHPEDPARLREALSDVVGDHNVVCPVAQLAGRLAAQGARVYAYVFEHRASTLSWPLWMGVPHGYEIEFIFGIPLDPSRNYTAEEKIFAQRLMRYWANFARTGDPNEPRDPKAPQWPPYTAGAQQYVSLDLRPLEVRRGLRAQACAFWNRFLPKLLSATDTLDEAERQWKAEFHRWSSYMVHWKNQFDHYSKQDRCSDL
- Measurement notes: Inhibition of Acetylcholinesterase (unknown origin) using acetylthiocholine iodide as substrate incubated for 20 mins by Ellaman's method
Remember to put the unit after the number in your answer.

Using known records, supply IC50 for `O=Cc1ccc2n1CCc1cc(O)c(O)cc1C2`
58.4 µM

Let me know recorded IC50 for `N[C@@H](CO)C(=O)O` , thanks.
38.3 µM

Hello, please tell me recorded IC50 for this one: `COc1cc(O)c2c(c1)C(=O)c1cc(O)c(O)cc1CCN2`
46 µM

Fill in reported IC50 for this entry: `O=C1c2c(ccc(O)c2O)CCn2cccc21`
50.5 µM
